Sourced from patent US20220195023A1

Measurement target: T1, CSP Protein (Plasmodium falciparum, UniProt Q7K740 19-374)
T1 construct: also called circumsporozoite protein; complete CSP protein
T1 sequence (Q7K740 19-374 limits assumed): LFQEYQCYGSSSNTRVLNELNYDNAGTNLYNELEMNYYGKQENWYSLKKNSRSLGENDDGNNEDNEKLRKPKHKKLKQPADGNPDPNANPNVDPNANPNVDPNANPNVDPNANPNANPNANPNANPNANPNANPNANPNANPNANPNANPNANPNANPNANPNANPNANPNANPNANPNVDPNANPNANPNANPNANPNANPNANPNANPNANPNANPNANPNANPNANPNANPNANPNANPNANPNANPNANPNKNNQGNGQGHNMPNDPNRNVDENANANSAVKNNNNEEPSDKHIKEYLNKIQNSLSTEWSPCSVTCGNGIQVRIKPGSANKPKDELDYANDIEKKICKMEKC
Procedure details: SPR, antibody on chip;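 note: antibodies immobilized on a Carterra chip, directly or via anti-human Fc capture, at two spots each, with CSP flowed over at 4-5 concentrations peaking at 0.5-8 µg/mL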
// classify: if (Kd < 0.04 nM) 1 (yes) else 0 (no)

- AB-007040 (antibody, V domains shown) VH: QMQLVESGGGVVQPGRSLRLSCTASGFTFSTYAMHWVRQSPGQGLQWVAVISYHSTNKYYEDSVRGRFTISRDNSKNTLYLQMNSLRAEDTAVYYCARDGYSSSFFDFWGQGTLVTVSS VL: DIQMTQSPSTLSASVGDRVAITCRASQSISRWLAWYQQQPGKAPKLLMSGASVLESGVPSRFSGSGSGTEFTLTISSLQPDDFATYYCQHYNSYYVTFGQGTKVEIK: 0 (no)
- AB-007074 (antibody, V domains shown) VH: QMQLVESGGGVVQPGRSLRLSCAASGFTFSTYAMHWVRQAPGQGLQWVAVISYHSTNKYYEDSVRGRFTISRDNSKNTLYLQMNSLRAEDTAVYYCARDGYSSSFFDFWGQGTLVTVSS VL: DIQMTQSPSTLSASVGDRVTITCRASQSISRWLAWYQQQPGKAPKLLMSGASVLESGVPSRFSGSGSGTEFTLTISSLQPDDFATYYCQHYNSYYVTFGQGTKVEIK: 0 (no)
- AB-007042 (antibody, V domains shown) VH: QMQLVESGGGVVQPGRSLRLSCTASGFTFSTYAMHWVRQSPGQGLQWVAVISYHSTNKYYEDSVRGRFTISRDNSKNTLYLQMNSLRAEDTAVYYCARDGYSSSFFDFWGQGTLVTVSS VL: DIQMTQSPSTLSASVGDRVAITCRASQDISRWLAWYQQQPGKAPKLLMSGASVLESGVPSRFSGSGSGTEFTLTISSLQPDDFATYYCQHYNSYFVTFGQGTKVEIK: 1 (yes)
- AB-007051 (antibody, V domains shown) VH: QMQLVESGGGVVQPGRSLRLSCTASGFTFSTYAMHWVRQSPGQGLQWVAVISYHSRNKYYEDSVRGRFTISRDNSKNTLYLQMNSLRAEDTAVYYCARDGYSSSFFDFWGQGTLVTVSS VL: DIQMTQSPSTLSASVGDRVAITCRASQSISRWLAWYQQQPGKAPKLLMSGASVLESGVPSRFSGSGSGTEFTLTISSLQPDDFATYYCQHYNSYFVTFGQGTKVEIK: 0 (no)
- AB-007066 (antibody, V domains shown) VH: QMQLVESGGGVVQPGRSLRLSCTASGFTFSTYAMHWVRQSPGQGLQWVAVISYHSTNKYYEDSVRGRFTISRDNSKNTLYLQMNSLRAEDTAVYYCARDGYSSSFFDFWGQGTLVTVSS VL: DIQMTQSPSTLSASVGDRVAITCRASQSISRWLAWYQQQPGKAPKLLMSQASVLESGVPSRFSGSGSGTEFTLTISSLQPDDFATYYCQHYNSYFVTFGQGTKVEIK: 0 (no)
